Form field: Ki (one value per entry).
- TARGET OF ASSAY: human adenosine A2a receptor (Homo sapiens, UniProt P29274)
- Construct: membrane preparation
- Sequence (P29274 whole entry): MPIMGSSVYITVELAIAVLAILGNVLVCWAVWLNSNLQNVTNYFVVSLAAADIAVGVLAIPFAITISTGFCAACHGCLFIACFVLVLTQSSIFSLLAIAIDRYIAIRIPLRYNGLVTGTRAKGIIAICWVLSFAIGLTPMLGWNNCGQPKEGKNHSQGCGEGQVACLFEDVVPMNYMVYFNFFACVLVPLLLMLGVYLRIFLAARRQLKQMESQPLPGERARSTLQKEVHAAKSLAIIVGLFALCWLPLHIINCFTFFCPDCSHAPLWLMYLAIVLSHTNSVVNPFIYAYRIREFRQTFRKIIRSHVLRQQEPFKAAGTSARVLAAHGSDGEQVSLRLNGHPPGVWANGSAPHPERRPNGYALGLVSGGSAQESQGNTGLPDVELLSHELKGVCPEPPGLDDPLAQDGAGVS
- EXPERIMENT SUMMARY: Human adenosine A2a receptor radioligand binding assay ([125I]-AB-MECA, CHO cell membranes)
- MEASUREMENT CONDITIONS: recombinant human A2a receptor expressed in CHO cells; Ki from IC50 by Cheng-Prussoff equation; read-out: hA2a Ki
Field format: number, assumed nM, no unit text.

Here are 5 molecules together with their reported answers.
>  <SMI>
COc1ccc(-c2cccc(NC(C)=O)c2)n2nc(NC(=O)c3ccc(C)s3)nc12

>  <TARGET OF ASSAY>
human adenosine A2a receptor (Homo sapiens, UniProt P29274)

>  <MEASUREMENT UNIT>
nM

>  <Ki>
254

$$$$
>  <SMI>
COc1ccc(-c2ccccc2F)n2nc(NC(=O)c3ccc(F)cc3)nc12

>  <TARGET OF ASSAY>
human adenosine A2a receptor (Homo sapiens, UniProt P29274)

>  <MEASUREMENT UNIT>
nM

>  <Ki>
229

$$$$
>  <SMI>
COc1ccc(-c2ccccc2)n2nc(NC(=O)c3cccc(Cl)c3)nc12

>  <TARGET OF ASSAY>
human adenosine A2a receptor (Homo sapiens, UniProt P29274)

>  <MEASUREMENT UNIT>
nM

>  <Ki>
181

$$$$
>  <SMI>
CCOc1cccc(-c2ccc(OC)c3nc(NC(=O)c4ccc(F)cc4)nn23)c1

>  <TARGET OF ASSAY>
human adenosine A2a receptor (Homo sapiens, UniProt P29274)

>  <MEASUREMENT UNIT>
nM

>  <Ki>
133

$$$$
>  <SMI>
COc1ccc(-c2ccccc2)n2nc(NC(=O)c3ccccc3F)nc12

>  <TARGET OF ASSAY>
human adenosine A2a receptor (Homo sapiens, UniProt P29274)

>  <MEASUREMENT UNIT>
nM

>  <Ki>
384

$$$$

Q: Dear colleague, I am looking for the recorded Ki of the following molecule: COc1ccc(-c2cccc(C)c2)n2nc(NC(=O)c3ccc(C)s3)nc12
Result: 277

Q: Dear colleague, I am looking for the recorded Ki of the following molecule: COc1ccc(-c2cccc(Cl)c2)n2nc(NC(=O)c3ccc(C)s3)nc12
Result: 165

Q: Dear colleague, I am looking for the recorded Ki of the following molecule: COc1ccc(-c2ccc(SC)cc2)n2nc(NC(=O)c3ccc(F)cc3)nc12
Result: 855

Q: Dear colleague, I am looking for the recorded Ki of the following molecule: COc1ccc(-c2cccc(C(C)=O)c2)n2nc(NC(=O)c3ccc(C)s3)nc12
Result: 618

Q: Dear colleague, I am looking for the recorded Ki of the following molecule: COc1ccc(-c2ccccc2F)n2nc(NC(=O)c3ccc(C)s3)nc12
Result: 134

Q: Dear colleague, I am looking for the recorded Ki of the following molecule: COc1ccc(-c2cccc(Cl)c2)n2nc(NC(=O)c3ccc(F)cc3)nc12
Result: 269

Q: Dear colleague, I am looking for the recorded Ki of the following molecule: COc1ccc(-c2ccccc2)n2nc(NC(=O)c3ccccc3Cl)nc12
Result: 258

Q: Dear colleague, I am looking for the recorded Ki of the following molecule: COc1ccc(-c2ccccc2)n2nc(NC(=O)c3ccc(C)s3)nc12
Result: 65.1

Q: Dear colleague, I am looking for the recorded Ki of the following molecule: COc1ccc(C(=O)Nc2nc3c(OC)ccc(-c4cccs4)n3n2)cc1
Result: 238

Q: Dear colleague, I am looking for the recorded Ki of the following molecule: COc1ccc(-c2cccc(C(F)(F)F)c2)n2nc(NC(=O)c3ccc(C)s3)nc12
Result: 547

Q: Dear colleague, I am looking for the recorded Ki of the following molecule: COc1cccc(C(=O)Nc2nc3c(OC)ccc(-c4cccs4)n3n2)c1
Result: 201

Q: Dear colleague, I am looking for the recorded Ki of the following molecule: COc1ccc(-c2ccsc2)n2nc(NC(=O)c3ccc(C)s3)nc12
Result: 71.1

Q: Dear colleague, I am looking for the recorded Ki of the following molecule: COc1ccc(-c2cccs2)n2nc(NC(=O)c3cccc(Cl)c3)nc12
Result: 142

Q: Dear colleague, I am looking for the recorded Ki of the following molecule: COc1ccc(-c2ccc(Cl)cc2)n2nc(NC(=O)c3ccc(C)s3)nc12
Result: 256

Q: Dear colleague, I am looking for the recorded Ki of the following molecule: COc1ccc(-c2ccc(OC)c3nc(NC(=O)c4ccc(C)s4)nn23)cc1
Result: 143

Q: Dear colleague, I am looking for the recorded Ki of the following molecule: COc1ccc(-c2ccsc2)n2nc(NC(=O)c3ccc(F)cc3)nc12
Result: 191

Q: Dear colleague, I am looking for the recorded Ki of the following molecule: COc1ccc(-c2ccc(Cl)s2)n2nc(NC(=O)c3ccc(C)s3)nc12
Result: 29.5

Q: Dear colleague, I am looking for the recorded Ki of the following molecule: COc1ccc(-c2cccs2)n2nc(NC(=O)c3ccc(Cl)cc3)nc12
Result: 114
